Tested on: Human lymphocytes
Assay: Immunosuppressive activity: concanavalin A induced lymphocyte proliferation, [^3H]-TdR incorporation
Format: cell-based
Details: 72 hours, read-out: Human lymphocytes ED50
EC50 less than 7 µM is met; EC50 greater than or equal to 7 µM is not met.

The following molecules have reported results that may help.
{"columns": ["molecule", "label"],
 "data": [
  ["OC[C@H]1O[C@@H](n2cnc3c(NCc4ccccc4O)ncnc32)[C@H](O)[C@@H]1O [2-hydroxybenzylamino, 6-(2-hydroxybenzylamino)purine riboside]", "met"],
  ["OC[C@H]1O[C@@H](n2cnc3c(NCc4cccc(Cl)c4O)ncnc32)[C@H](O)[C@@H]1O [2-hydroxy-3-chlorobenzylamino]", "met"],
  ["OC[C@H]1O[C@@H](n2cnc3c(NCc4ccc(O)c(O)c4)ncnc32)[C@H](O)[C@@H]1O [3,4-dihydroxybenzylamino]", "not met"],
  ["COc1ccc(CNc2ncnc3c2ncn3[C@@H]2O[C@H](CO)[C@@H](O)[C@H]2O)c(O)c1 [2-hydroxy-4-methoxybenzylamino]", "met"]
]}

IN: Threshold test, EC50 < 7 µM: OC[C@H]1O[C@@H](n2cnc3c(NCc4cccc(O)c4)ncnc32)[C@H](O)[C@@H]1O [3-hydroxybenzylamino, 6-(3-hydroxybenzylamino)purine riboside]
OUT: not met

IN: Threshold test, EC50 < 7 µM: OC[C@H]1O[C@@H](n2cnc3c(NCc4ccccc4Cl)ncnc32)[C@H](O)[C@@H]1O [2-chlorobenzylamino, 6-(2-chlorobenzylamino)purine riboside]
OUT: not met

IN: Threshold test, EC50 < 7 µM: Cc1ccccc1CNc1ncnc2c1ncn2[C@@H]1O[C@H](CO)[C@@H](O)[C@H]1O [2-methylbenzylamino, 6-(2-methylbenzylamino)purine riboside]
OUT: met

IN: Threshold test, EC50 < 7 µM: COc1cccc(CNc2ncnc3c2ncn3[C@@H]2O[C@H](CO)[C@@H](O)[C@H]2O)c1O [2-hydroxy-3-methoxybenzylamino]
OUT: met

---

System: Amaranthus caudatus cotyledon/hypocotyl explants
Assay: Amaranthus bioassay (betacyanin content)
Assay type: in vivo
Settings: at concentration with highest activity
measured.property: Activity (%) [10^−5 mol · l^−1 BAP = 100%]
Give the number; % is assumed, so skip it.

Record excerpt, results attached:
{"columns": ["molecule", "test.system", "recorded.result"],
 "data": [
  ["OC[C@H]1O[C@@H](n2cnc3c(NCc4cccc(Br)c4)ncnc32)[C@H](O)[C@@H]1O [3-bromobenzylamino, 6-(3-bromobenzylamino)purine riboside]", "Amaranthus caudatus cotyledon/hypocotyl explants", 151],
  ["COc1ccc(CNc2ncnc3c2ncn3[C@@H]2O[C@H](CO)[C@@H](O)[C@H]2O)cc1O [3-hydroxy-4-methoxybenzylamino]", "Amaranthus caudatus cotyledon/hypocotyl explants", 0],
  ["COc1ccc(CNc2ncnc3c2ncn3[C@@H]2O[C@H](CO)[C@@H](O)[C@H]2O)cc1 [4-methoxybenzylamino, 6-(4-methoxybenzylamino)purine riboside]", "Amaranthus caudatus cotyledon/hypocotyl explants", 17],
  ["COc1ccccc1CNc1ncnc2c1ncn2[C@@H]1O[C@H](CO)[C@@H](O)[C@H]1O [2-methoxybenzylamino, 6-(2-methoxybenzylamino)purine riboside]", "Amaranthus caudatus cotyledon/hypocotyl explants", 86]
]}

IN: May I ask what Activity (%) [10^−5 mol · l^−1 BAP = 100%] has been recorded for OC[C@H]1O[C@@H](n2cnc3c(NCc4ccccc4Cl)ncnc32)[C@H](O)[C@@H]1O [2-chlorobenzylamino, 6-(2-chlorobenzylamino)purine riboside] ?
OUT: 113

IN: May I ask what Activity (%) [10^−5 mol · l^−1 BAP = 100%] has been recorded for `OC[C@H]1O[C@@H](n2cnc3c(NCc4c(F)ccc(F)c4F)ncnc32)[C@H](O)[C@@H]1O` ?
OUT: 94

IN: May I ask what Activity (%) [10^−5 mol · l^−1 BAP = 100%] has been recorded for OC[C@H]1O[C@@H](n2cnc3c(NCc4ccc(O)c(O)c4)ncnc32)[C@H](O)[C@@H]1O [3,4-dihydroxybenzylamino] ?
OUT: 8

IN: May I ask what Activity (%) [10^−5 mol · l^−1 BAP = 100%] has been recorded for `OC[C@H]1O[C@@H](n2cnc3c(NCc4ccc(Cl)c(Cl)c4)ncnc32)[C@H](O)[C@@H]1O` ?
OUT: 68

IN: May I ask what Activity (%) [10^−5 mol · l^−1 BAP = 100%] has been recorded for OC[C@H]1O[C@@H](n2cnc3c(NCc4ccc(Cl)cc4)ncnc32)[C@H](O)[C@@H]1O [4-chlorobenzylamino, 6-(4-chlorobenzylamino)purine riboside] ?
OUT: 35

Source: patent US8119614B2
